Assay: binders of probe aFST on microarray, primary screen, stem cell growth factor project, biochemical, small-molecule microarray, fluorescence 635/667 (AID 1086);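 also: score merges 667 nm fluorescence with signal-to-noise of each printed compound spot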
Settings: higher = more signal
Assign class by composite z-score: not lower than 0.1 means Condition met; lower than 0.1 means Condition not met.

Given `COCCOC(=O)N1C(=O)[C@@]2(c3cc(C#CCNC(N)=O)ccc31)[C@H](c1ccccc1OCCO)N1[C@H](c3ccccc3)[C@H](c3ccccc3)OC(=O)[C@H]1[C@@H]2C(=O)N1CCCCCCC1` , state whether its composite z-score is at least 0.1.
Condition met

Dear colleague, could you confirm whether CN1C(=O)C2CC=C(C3=CCO[C@@H]3[C@H]3CCCN3S(=O)(=O)c3ccccc3[N+](=O)[O-])CC2C1=O (stereo partly specified) has composite z-score at or above 0.1?
Condition not met

Does the reported composite z-score for `C=CCOC(=O)[C@H]1[C@@H]2C(=O)O[C@@H](c3ccccc3)[C@@H](c3ccccc3)N2[C@@H](c2ccc(OCCOC(=O)[C@H]3C[C@H]4C(=O)NCC(=O)N4[C@H]3c3ccc(O)cc3)cc2)[C@]12C(=O)Nc1ccccc12` fall at or above the 0.1 mark?
Condition met

Check the entry CC(C)C[C@H]1NC(=O)CNC(=O)[C@@]23C(=O)N[C@@H](Cc4ccccc4)C2[C@H](C)[C@@]2(C)O[C@H]2C3/C=C/C/C=C\CNC1=O (stereo partly specified) : does composite z-score equal or exceed 0.1?
Condition met

Please check the record `C=CCNC(=O)[C@H]1[C@@H]2C(=O)O[C@@H](c3ccccc3)[C@@H](c3ccccc3)N2[C@@H](c2ccc(OCCO)cc2)[C@]12C(=O)Nc1ccc(C#Cc3ccc(OC)cc3)cc12` and state if its composite z-score is at or above 0.1.
Condition met

Hi, just wondering whether C[C@]12C(=O)N(CCO)[C@@H]3C(=O)N(c4ccc(Cl)cc4)CC=CC31O[C@@H]1/C=C\CCCOC(=O)C12 (stereo partly specified) shows composite z-score of 0.1 or higher.
Condition not met
